Source: ChEMBL document CHEMBL3886382

Molecular target: cAMP and cAMP-inhibited cGMP 3',5'-cyclic phosphodiesterase 10A (Homo sapiens, UniProt Q9Y233)
Sequence (Q9Y233 whole entry): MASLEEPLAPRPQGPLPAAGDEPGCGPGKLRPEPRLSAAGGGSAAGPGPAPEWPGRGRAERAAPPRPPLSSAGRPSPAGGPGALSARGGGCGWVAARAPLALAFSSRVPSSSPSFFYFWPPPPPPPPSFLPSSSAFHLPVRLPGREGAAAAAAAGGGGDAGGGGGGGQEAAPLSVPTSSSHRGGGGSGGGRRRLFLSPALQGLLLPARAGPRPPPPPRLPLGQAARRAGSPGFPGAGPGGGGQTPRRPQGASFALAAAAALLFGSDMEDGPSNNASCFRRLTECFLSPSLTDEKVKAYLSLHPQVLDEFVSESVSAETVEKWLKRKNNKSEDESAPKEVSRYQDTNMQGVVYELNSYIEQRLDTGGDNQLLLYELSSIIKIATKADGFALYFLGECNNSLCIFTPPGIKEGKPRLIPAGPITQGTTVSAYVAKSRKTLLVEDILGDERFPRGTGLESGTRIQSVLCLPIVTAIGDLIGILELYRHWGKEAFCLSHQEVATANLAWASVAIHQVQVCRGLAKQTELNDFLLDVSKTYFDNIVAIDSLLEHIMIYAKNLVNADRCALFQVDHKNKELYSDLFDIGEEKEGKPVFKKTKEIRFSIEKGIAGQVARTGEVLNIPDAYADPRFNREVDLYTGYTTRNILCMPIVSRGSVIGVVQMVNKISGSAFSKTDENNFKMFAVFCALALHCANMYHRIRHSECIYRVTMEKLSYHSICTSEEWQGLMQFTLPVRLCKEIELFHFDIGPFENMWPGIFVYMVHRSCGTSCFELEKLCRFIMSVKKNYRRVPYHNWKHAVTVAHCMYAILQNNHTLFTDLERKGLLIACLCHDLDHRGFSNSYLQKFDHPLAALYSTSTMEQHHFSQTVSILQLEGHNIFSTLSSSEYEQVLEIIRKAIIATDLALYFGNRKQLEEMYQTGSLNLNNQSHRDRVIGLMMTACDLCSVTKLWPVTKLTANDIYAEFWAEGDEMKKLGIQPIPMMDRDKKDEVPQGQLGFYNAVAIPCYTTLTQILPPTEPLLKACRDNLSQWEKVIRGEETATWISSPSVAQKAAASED
Assay: In Vitro Assay: Human recombinant PDE10A2 was expressed in Sf9 cells, using a recombinant baculovirus construct containing the full length sequence containing a 6ÿHis sequence following the start Met to allow metal affinity purification of the recombinant protein. Cells were harvested and the phosphodiesterase protein was purified by metal chelate chromatography on Ni-sepharose 6FF.The affinity of the compounds of Formula (I) for phophodiesterases (PDE) was measured by a scintillation proximity assay (SPA). PDE Yttrium Silicate SPA beads allow PDE activity to be measured by direct binding of the primary phosphate groups of non-cyclic AMP or GMP to the beads via a complex iron chelation mechanism. The amount of bound tritiated product ([3H]-AMP) is measured by liquid scintillation counting.The compounds were dissolved and diluted in 100% DMSO in polystyrene plates to a concentration of 100-fold the final concentration in the assay. Human PDE10A enzyme solution (10 uL) was added.
observed-property: IC50 (nM)
Report the value in nM with no unit label.

Study these solved cases before continuing.
mol-smiles	IC50 / nM
O=C(O)CN1CCC(c2c(C#Cc3ccc4ccccc4n3)nc3c(N4CCOCC4)ccnn23)CC1	7
C(#Cc1nc2c(N3CCOCC3)ccnn2c1-c1ccc(N2CCNCC2)nc1)c1ccc2ccccc2n1	3
COc1cccc(-c2c(/C=C/c3ccc4c(C(=O)O)cccc4n3)nc3c(N4CCOCC4)ccnn23)c1	1

In the following, a different compound is considered.
Need IC50, item C(=C\c1nc2c(N3CCOCC3)ccnn2c1-c1ccc(Sc2nnc[nH]2)nc1)/c1ccc2ccccc2n1
6
